These entries and their values trace back to the nanobody polyreactivity screen of Harvey et al. (2022).

- TEST_NAME: yeast display, Sf9 membrane polyspecificity reagent, FACS + sequencing; frameworks hold sequencing errors
PROPERTY_MEASURED: polyreactivity (PSR sort gate)

| SEQUENCE | ENDPOINT_RESULT |
| --- | --- |
| QVQLVESGGGLVQAGGSLRLSGAASGRIFATNAMGWYRQAPGKETELVATITRSAGRTYYADSVKGRFTNSRDNAKNTVYLQMNSLKPEETAVYYCAASYWDTEPGYREYDYWGQGTQVTVSS | low polyreactivity |
| QDQLVESWGGLVQAGGSLRLICASSGSNIGYNAMGWYRPAPVKERELVAAISYSGGSTYYADSVKGRFTISRDNAKNTVYFRMNSLKPEDTAVYYCNKYIRRYLIYGSWGQGSQVTVSS | high polyreactivity |
| QVQLVESGGGLVQAGGSLRLSCAASGSTFSYNAMGWYRQAPGKERELVAAINLRGGNTYYADSVKGRFTISRDNAKNTVYLQMNSLKPEDTAVYYCARTRRHSQNFDYWGQGTQVIVSS | high polyreactivity |
| QVQLVESGGGLVQAGGILRLSCAASGSTFGRYAMGWYRQAPGKVRELVAAISRRGGSTYYADSVKGRFTISRDNAKKTVYLQMYSLKRQDTAVYYCGADDVRTTGCHFDYWGQGTEVTVSS | high polyreactivity |
| QVQLVESGGGLVQAGGSLRLSCAASGSIFYRNAMGWYRQAPGNERELVAAITSGASTYYADSVKGRFTISRDNAKNTVYLQMNSLKPEDTEVYYCAADSDSQWGMDYWGQGTQVTVSS | low polyreactivity |
